Measured CC50 at 4 days of individual entries
- Protocol details: Compound cytotoxicity, XTT-based colorimetric assay
- Type: cell-based
- Experimental parameters: human, uninfected MT2 cells, day 4, XTT
Report as a plain number; the unit µM is understood.

COc1ccc(N(C)C(=O)[C@H](Cc2ccccc2)NC(=O)Cn2c(=O)n(CC(=O)N[C@@H](Cc3ccccc3)C(=O)N(C)c3ccc(OC)cc3)c3ccccc32)cc1 ... 19.9

Alright, here's another compound for you.
Req: So what's the measured CC50 at 4 days for this one? COc1ccc(N(C)C(=O)[C@H](Cc2ccccc2)NC(=O)NS(=O)(=O)N[C@@H](Cc2ccccc2)C(=O)N(C)c2cc(OC)c(OC)c(OC)c2)cc1
Resp: 15.9

Sourced from patent US20180072997A1
